The reported numbers originate from patent US5409933A.

Tested on: Klebsiella aerogenes 1522E
experimental.protocol: In Vitro Anti-Bacterial Activity Test (MIC, agar dilution)
Assay type: cell-based
particulars: Klebsiella aerogenes, 1522E, 18 h, Klebsiella aerogenes 1522E; Muller-Hinton agar, 37° C., 18 hours; read-out: MIC
Counter-ions that a name gives are not always drawn.
Flag rule - MIC less than 0.05 µg/mL flags t; the remaining entries get f.

Please review the following examples before continuing.
| compound | test.target | qualitative.label |
| --- | --- | --- |
| CNCC1=CCN(c2c(F)cc3c(=O)c(C(=O)CC#N)cn(C4CC4)c3c2Cl)C1 [Example 43, hydrochloride] | Klebsiella aerogenes 1522E | f |
| CCOC(=O)CC(=O)c1cn(C2CC2)c2c(Cl)c(N3CC[C@H](N)C3)c(F)cc2c1=O [Example 27, hydrochloride] | Klebsiella aerogenes 1522E | t |
| CC(=O)CC(=O)c1cn(C2CC2)c2c(Cl)c(N3CCC(N)C3)c(F)cc2c1=O (centres unmarked) [Example 37, hydrochloride] | Klebsiella aerogenes 1522E | f |

Problem: A record lists NC1CCN(c2c(F)cc3c(=O)c(C(=O)C[N+](=O)[O-])cn(CCF)c3c2F)C1 (centres unmarked) [Example 31, hydrochloride] . Is its MIC below 0.05 µg/mL?
Result: f

Problem: A record lists O=C(C[N+](=O)[O-])c1cn(C2CC2)c2c(Cl)c(N3CC4=C(CNC4)C3)c(F)cc2c1=O [Example 34, hydrochloride] . Is its MIC below 0.05 µg/mL?
Result: t

Problem: A record lists CNCC1=CCN(c2c(F)cc3c(=O)c(C(=O)C[N+](=O)[O-])cn(C4CC4)c3c2F)C1 [Example 15, hydrochloride] . Is its MIC below 0.05 µg/mL?
Result: t

Problem: A record lists CNC1CCN(c2c(F)cc3c(=O)c(C(=O)C[N+](=O)[O-])cn(C4CC4)c3c2Cl)C1 (centres unmarked) [Example 63, hydrochloride] . Is its MIC below 0.05 µg/mL?
Result: t

Problem: A record lists NC1CCN(c2c(F)cc3c(=O)c(C(=O)C[N+](=O)[O-])cn(C4CC4)c3c2Cl)C1 (centres unmarked) [Example 11, hydrochloride] . Is its MIC below 0.05 µg/mL?
Result: t

* * *

System: Staphylococcus aureus 285
experimental.protocol: In Vitro Anti-Bacterial Activity Test (MIC, agar dilution)
Format: cell-based
particulars: Staphylococcus aureus, 285, 18 h, Staphylococcus aureus 285; Muller-Hinton agar, 37° C., 18 hours; read-out: MIC
Where a name gives a salt, the structure may show the parent alone.
Flag rule - MIC less than 0.1 µg/mL flags TRUE; the remaining entries get FALSE.

| compound | test.target | qualitative.label |
| --- | --- | --- |
| CCOC(=O)C(C(N)=O)C(=O)c1cn(C2CC2)c2c(Cl)c(N3CCC(N)C3)c(F)cc2c1=O (stereo not drawn) [Example 52, hydrochloride] | Staphylococcus aureus 285 | TRUE |

Problem: A record lists CN[C@H]1CCN(c2c(F)cc3c(=O)c(C(=O)C[N+](=O)[O-])cn(C4CC4)c3c2OC)C1 [Example 65, hydrochloride] . Is its MIC below 0.1 µg/mL?
Result: TRUE

Problem: A record lists CCOC(=O)C(C(=O)OCC)C(=O)c1cn(C2CC2)c2c(Cl)c(N3CC4=C(CNC4)C3)c(F)cc2c1=O [Example 36, hydrochloride] . Is its MIC below 0.1 µg/mL?
Result: TRUE

Problem: A record lists CNCC1=CCN(c2c(F)cc3c(=O)c(C(=O)C[N+](=O)[O-])cn(C4CC4)c3c2Cl)C1 [Example 16, hydrochloride] . Is its MIC below 0.1 µg/mL?
Result: TRUE

Problem: A record lists NC1CCN(c2c(F)cc3c(=O)c(C(=O)C[N+](=O)[O-])cn(CCF)c3c2F)C1 (stereo not drawn) [Example 31, hydrochloride] . Is its MIC below 0.1 µg/mL?
Result: FALSE
